assay: Single rising dose pharmacokinetics in beagle dogs; assay type: in vivo, beagle dog; details: male, beagle, dog, plasma, sc, 1 mg/kg
Peptide text beside a SMILES is read from it.
REPORTED_PROPERTY: AUC(0-inf) (ng·h/mL)
Answers are plain numbers, in ng·h/mL.

Which AUC(0-inf) value is on record for CC(C)[C@@H](NC(=O)[C@H](N)Cc1ccc(O)cc1)C(=O)N[C@H](CC(=O)O)C(=O)N[C@H](CCCCN)C(=O)N[C@H](CCCNC(=N)N)C(=O)O [FC-12738, (D-Tyr)-(D-Val)-(D-Asp)-(D-Lys)-(D-Arg)] (HELM PEPTIDE1{[dY].[dV].[dD].[dK].[dR]}$$$$V2.0) ? 2770

----------
experiment: Excretion study in SD rats following single subcutaneous administration; type: in vivo, SD rat; details: male, Sprague-Dawley, rat, urine + feces, sc, 10 mg/kg
Peptide text beside a SMILES is read from it.
REPORTED_PROPERTY: dose excreted at 168 h (%)
Give bare numbers, in %.

Could you tell me which dose excreted at 168 h is on file for CC(C)[C@@H](NC(=O)[C@H](N)Cc1ccc(O)cc1)C(=O)N[C@H](CC(=O)O)C(=O)N[C@H](CCCCN)C(=O)N[C@H](CCCNC(=N)N)C(=O)O [FC-12738, (D-Tyr)-(D-Val)-(D-Asp)-(D-Lys)-(D-Arg)] (HELM PEPTIDE1{[dY].[dV].[dD].[dK].[dR]}$$$$V2.0) ? 88.9

----------
assay: Single rising dose pharmacokinetics in beagle dogs; format: in vivo, beagle dog; settings: male, beagle, dog, plasma, sc, 5 mg/kg
Peptide text beside a SMILES is read from it.
REPORTED_PROPERTY: AUC(0-t) (ng·h/mL)
Answers are plain numbers, in ng·h/mL.

For the compound shown here, CC(C)[C@@H](NC(=O)[C@H](N)Cc1ccc(O)cc1)C(=O)N[C@H](CC(=O)O)C(=O)N[C@H](CCCCN)C(=O)N[C@H](CCCNC(=N)N)C(=O)O [FC-12738, (D-Tyr)-(D-Val)-(D-Asp)-(D-Lys)-(D-Arg)] (HELM PEPTIDE1{[dY].[dV].[dD].[dK].[dR]}$$$$V2.0) , give the reported AUC(0-t). 16700

----------
experiment: Single-dose pharmacokinetics in SD rats; assay type: in vivo, SD rat; details: male, SD, rat, plasma, sc, 10 mg/kg
Peptide text beside a SMILES is read from it.
REPORTED_PROPERTY: AUC(0-inf) (ng·h/mL)
Answers are plain numbers, in ng·h/mL.

Any idea what its AUC(0-inf) is? The molecule is CC(C)[C@@H](NC(=O)[C@H](N)Cc1ccc(O)cc1)C(=O)N[C@H](CC(=O)O)C(=O)N[C@H](CCCCN)C(=O)N[C@H](CCCNC(=N)N)C(=O)O [FC-12738, (D-Tyr)-(D-Val)-(D-Asp)-(D-Lys)-(D-Arg)] (HELM PEPTIDE1{[dY].[dV].[dD].[dK].[dR]}$$$$V2.0) 13000

----------
assay: Bidirectional permeability and efflux in Caco-2 cells; format: in vitro ADME; settings: human, Caco-2, with GF120918 10.0 μM
Peptide text beside a SMILES is read from it.
REPORTED_PROPERTY: efflux ratio at 120 min, 10 μM
Numbers only.

Requested read-out: efflux ratio at 120 min, 10 μM. Entry: CC(C)[C@@H](NC(=O)[C@H](N)Cc1ccc(O)cc1)C(=O)N[C@H](CC(=O)O)C(=O)N[C@H](CCCCN)C(=O)N[C@H](CCCNC(=N)N)C(=O)O [FC-12738, (D-Tyr)-(D-Val)-(D-Asp)-(D-Lys)-(D-Arg)] (HELM PEPTIDE1{[dY].[dV].[dD].[dK].[dR]}$$$$V2.0) 1.13
